Biological target: sGC α1/β1 heterodimer (Homo sapiens, UniProt Q02108+Q02153)
Construct: expressed in transfected cells
Sequence (Q02108 1-690): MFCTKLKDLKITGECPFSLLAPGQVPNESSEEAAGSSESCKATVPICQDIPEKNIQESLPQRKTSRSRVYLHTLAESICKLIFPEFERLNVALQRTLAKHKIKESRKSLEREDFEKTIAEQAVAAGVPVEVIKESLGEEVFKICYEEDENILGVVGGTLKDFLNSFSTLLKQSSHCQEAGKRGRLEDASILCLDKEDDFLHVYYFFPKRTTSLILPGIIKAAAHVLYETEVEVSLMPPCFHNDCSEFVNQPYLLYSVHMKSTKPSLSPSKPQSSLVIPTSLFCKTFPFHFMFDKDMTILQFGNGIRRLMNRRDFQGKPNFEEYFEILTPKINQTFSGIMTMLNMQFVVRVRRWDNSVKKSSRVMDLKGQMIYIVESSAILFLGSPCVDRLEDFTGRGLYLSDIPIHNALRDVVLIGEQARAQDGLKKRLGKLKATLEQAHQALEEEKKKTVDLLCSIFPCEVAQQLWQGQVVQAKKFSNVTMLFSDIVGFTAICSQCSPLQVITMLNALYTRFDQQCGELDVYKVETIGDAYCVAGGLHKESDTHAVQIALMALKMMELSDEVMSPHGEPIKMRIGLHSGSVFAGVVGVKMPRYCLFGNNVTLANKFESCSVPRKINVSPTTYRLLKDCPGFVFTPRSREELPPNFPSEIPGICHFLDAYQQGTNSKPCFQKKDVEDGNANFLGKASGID
Sequence (Q02153 1-619): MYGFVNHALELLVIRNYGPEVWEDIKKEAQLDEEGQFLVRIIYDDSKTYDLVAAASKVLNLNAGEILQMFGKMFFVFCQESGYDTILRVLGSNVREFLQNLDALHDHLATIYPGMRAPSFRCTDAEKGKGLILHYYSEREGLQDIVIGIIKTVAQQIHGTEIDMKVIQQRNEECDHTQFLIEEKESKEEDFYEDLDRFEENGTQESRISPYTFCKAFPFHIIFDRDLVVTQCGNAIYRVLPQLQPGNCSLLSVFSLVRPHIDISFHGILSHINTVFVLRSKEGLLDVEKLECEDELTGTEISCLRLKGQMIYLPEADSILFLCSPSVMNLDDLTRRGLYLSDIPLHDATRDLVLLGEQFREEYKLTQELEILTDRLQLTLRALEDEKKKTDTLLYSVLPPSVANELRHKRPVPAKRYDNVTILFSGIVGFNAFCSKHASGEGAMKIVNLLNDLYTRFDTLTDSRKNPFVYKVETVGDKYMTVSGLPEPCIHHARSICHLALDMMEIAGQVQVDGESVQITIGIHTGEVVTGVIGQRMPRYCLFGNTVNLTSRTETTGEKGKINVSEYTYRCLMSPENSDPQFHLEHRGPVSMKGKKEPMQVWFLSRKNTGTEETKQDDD
Assay: Cell-Based sGC Functional Assay (CASA Assay), cGMP generation in CHO-K1/sGC cells;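 further: reference Compound A is a published heme-dependent sGC activator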
Conditions: maximum cGMP production of Compound A set to 100% activation, read-out: % Act. (percent activation relative to Compound A)
parameter: Emax (%)
Give just the number in %; leave the unit off.

>>> recorded_result("CC1(c2ccc(F)c(F)c2)C(=O)Nc2nc(-c3cn4ncnc4c(CCC(F)(F)F)n3)nc(N)c21 (stereo not shown) [Example 84B]")
101

Entry CC1(c2ccc(Cl)cc2)C(=O)Nc2nc(-c3cn4ncnc4c(CCC(F)(F)C(F)(F)F)n3)nc(N)c21 (stereo not shown) [Example 10A] — recorded Emax = 137

----------
Entries and their Emax
Target: sGC α1/β1 heterodimer (Homo sapiens, UniProt Q02108+Q02153)
Construct: expressed in transfected cells
Experiment: Cell-Based sGC Functional Assay (CASA Assay), cGMP generation in CHO-K1/sGC cells;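 further: reference Compound A is a published heme-dependent sGC activator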
Conditions: maximum cGMP production of Compound A set to 100% activation, read-out: % Act. (percent activation relative to Compound A)
Give just the number in %; leave the unit off.

Look over these answered cases.
>>> recorded_result("CCCc1nc(-c2nc(N)c3c(n2)NC(=O)C3(C)c2ccc(F)cn2)cn2nc(C)nc12 (stereo not shown) [Example 92B]")
167
>>> recorded_result("CC1(c2ccccc2F)C(=O)Nc2nc(-c3cn4ncnc4c(CCC(F)(F)C(F)(F)F)n3)nc(O)c21 (stereo not shown) [Example 170A]")
125
>>> recorded_result("CC1(c2ccc(F)cn2)C(=O)Nc2nc(-c3cn4ncnc4c(CCCC(F)(F)F)n3)ncc21 (stereo not shown) [Example 176B]")
166

Next molecule, please.
Entry CCCCc1nc(-c2nc(N)c3c(n2)NC(=O)C3(C)c2ccc(C(F)(F)F)cn2)cn2ncnc12 (stereo not shown) [Example 67B] — recorded Emax = 119

----------
Target: sGC α1/β1 heterodimer (Homo sapiens, UniProt Q02108+Q02153)
Construct: expressed in transfected cells
Sequence (Q02108 1-690): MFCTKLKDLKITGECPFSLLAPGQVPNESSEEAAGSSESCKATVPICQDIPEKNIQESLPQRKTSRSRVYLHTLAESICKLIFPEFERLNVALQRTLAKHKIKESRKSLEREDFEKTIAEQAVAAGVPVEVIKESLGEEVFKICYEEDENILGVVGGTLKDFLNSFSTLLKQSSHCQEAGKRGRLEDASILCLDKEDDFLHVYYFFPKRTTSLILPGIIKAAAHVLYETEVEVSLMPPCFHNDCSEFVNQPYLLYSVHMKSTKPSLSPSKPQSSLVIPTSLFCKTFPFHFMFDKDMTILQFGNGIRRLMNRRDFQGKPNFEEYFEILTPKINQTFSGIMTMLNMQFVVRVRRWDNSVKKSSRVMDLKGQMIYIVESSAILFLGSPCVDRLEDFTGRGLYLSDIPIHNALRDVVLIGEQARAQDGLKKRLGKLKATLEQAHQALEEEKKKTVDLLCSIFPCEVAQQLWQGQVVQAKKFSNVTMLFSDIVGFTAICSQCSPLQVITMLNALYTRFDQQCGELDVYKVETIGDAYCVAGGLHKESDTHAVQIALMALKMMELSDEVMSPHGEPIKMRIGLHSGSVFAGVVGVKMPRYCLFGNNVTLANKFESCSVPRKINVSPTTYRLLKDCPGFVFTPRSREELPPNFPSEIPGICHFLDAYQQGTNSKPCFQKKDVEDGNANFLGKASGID
Sequence (Q02153 1-619): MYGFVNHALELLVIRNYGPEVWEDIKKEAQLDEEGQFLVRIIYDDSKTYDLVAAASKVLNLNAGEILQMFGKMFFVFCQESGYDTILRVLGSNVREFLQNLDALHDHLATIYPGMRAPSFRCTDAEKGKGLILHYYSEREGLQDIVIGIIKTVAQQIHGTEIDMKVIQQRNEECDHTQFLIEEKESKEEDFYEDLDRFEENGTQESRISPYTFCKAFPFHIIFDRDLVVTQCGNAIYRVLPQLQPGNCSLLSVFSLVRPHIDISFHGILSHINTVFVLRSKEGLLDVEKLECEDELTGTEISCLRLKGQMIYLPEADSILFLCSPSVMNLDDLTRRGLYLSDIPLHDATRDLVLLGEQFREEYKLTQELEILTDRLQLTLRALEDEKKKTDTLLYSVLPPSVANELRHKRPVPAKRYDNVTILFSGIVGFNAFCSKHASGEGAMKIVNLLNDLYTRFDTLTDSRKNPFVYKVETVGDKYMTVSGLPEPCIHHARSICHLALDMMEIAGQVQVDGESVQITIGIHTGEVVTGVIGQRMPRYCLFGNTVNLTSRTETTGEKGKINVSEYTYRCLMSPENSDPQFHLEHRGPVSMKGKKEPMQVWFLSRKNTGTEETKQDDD
Assay: Cell-Based sGC Functional Assay (CASA Assay), cGMP generation in CHO-K1/sGC cells;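 further: reference Compound A is a published heme-dependent sGC activator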
Details: maximum cGMP production of Compound A set to 100% activation, read-out: % Act. (percent activation relative to Compound A)
parameter: Emax (%)
Give just the number in %; leave the unit off.

Look over these answered cases.
>>> recorded_result("Nc1nc(-c2cn3ncnc3c(CCC(F)(F)C(F)(F)F)n2)nc2c1C(c1nnc(C3CC3)o1)(C1CC1)C(=O)N2 (stereo not shown) [Example 107A]")
76
>>> recorded_result("C[C@@]1(c2ccc(F)cc2)C(=O)Nc2nc(-c3cn4ncnc4c(CCCC(F)(F)F)n3)nc(N)c21 [Example 23A]")
163
>>> recorded_result("Cc1nc2c(CCC(F)(F)C(F)(F)F)nc(-c3nc(O)c4c(n3)NC(=O)C4(C)c3ccc(Cl)c(F)c3)cn2n1 (stereo not shown) [Example 132B]")
119

Entry CCCCc1nc(-c2nc(N)c3c(n2)NC(=O)C3(c2ccc(F)cn2)C2CC2)cn2ncnc12 (stereo not shown) [Example 66A] — recorded Emax = 162

Entry CC(C)Cc1nc(-c2nc(N)c3c(n2)NC(=O)[C@@]3(C)c2ccc(F)cc2)cn2ncnc12 [Example 73A] — recorded Emax = 101

Entry CC1(c2ccc(C3CC3)nc2)C(=O)Nc2nc(-c3cn4ncnc4c(CCC(F)(F)C(F)(F)F)n3)nc(N)c21 (stereo not shown) [Example 13B] — recorded Emax = 109

Entry Cc1nc2c(CCC(F)(F)C(F)(F)F)nc(-c3nc(N)c4c(n3)NC(=O)C4(C)c3ccc(F)cn3)cn2n1 (stereo not shown) [Example 89B] — recorded Emax = 109

Entry C[C@@]1(c2ccc(F)cc2)C(=O)Nc2nc(-c3cn4ncnc4c(CCC(F)(F)C(F)(F)F)n3)ncc21 [Example 172A] — recorded Emax = 122
